test system: intestinal alkaline phosphatase [Mus musculus]; assay: mouse intestinal phosphatase enzyme activation – biochemical, luminescence, single concentration, confirmation (AID 434970); conditions: purified mouse IAP, CDP-Star luminescence, 30 min, at 10 µM
Screen size: about 11,000 compounds; about 310 (2.8%) were called active. Cut-off read from the data, not from the text of the source: active = activity change below about -85%; inactive = the rest. What follows is part of a selection rich in actives, with near analogues and random picks from the rest.
Outcome (select one): T for active, F for inactive

Query block: What classification did CCCn1c(Cc2ccccc2)nnc1SCC(=O)N1CCOCC1 end up with in this test?
Result block: F

Query block: What classification did COC(=O)c1c(NC(=O)Nc2ccc(Cl)cc2)sc(C)c1C end up with in this test?
Result block: F

Query block: What classification did COc1ccccc1C(=O)N1CCN=C1SC end up with in this test?
Result block: F

Query block: What classification did Cc1noc(C)c1COC(=O)C1COc2ccccc2O1 (configuration not stated) end up with in this test?
Result block: F

Query block: What classification did O=C1c2cccc3c(N4CCCCC4)ccc(c23)C(=O)N1CCO end up with in this test?
Result block: F

Query block: What classification did CN1CCN(NC(=O)Nc2cc(Cl)cc(Cl)c2)CC1 end up with in this test?
Result block: T

Query block: What classification did Cc1csc(NC(=O)Nc2ccc(Cl)cc2)n1 end up with in this test?
Result block: F

Query block: What classification did CCOc1cc(/C=N\NC(=O)c2ccc(NC(=O)CC)cc2)ccc1OC(=O)c1ccccc1 end up with in this test?
Result block: F

Query block: What classification did CN(c1cccc(NC(=O)Nc2cccc(Cl)c2)c1)S(C)(=O)=O end up with in this test?
Result block: T

Query block: What classification did CC(C)S(=O)(=O)c1csc(NC(=O)Nc2ccc(Cl)cc2)c1Cl end up with in this test?
Result block: T

Query block: What classification did c1coc(C2Nc3cccc4cccc(c34)N2)c1 end up with in this test?
Result block: F

Query block: What classification did CN(c1cccc(NC(=O)Nc2ccc(Cl)cc2)c1)S(C)(=O)=O end up with in this test?
Result block: F
